read-out: Monocyte Chemoattractant Protein-1 (MCP1), CCL2 (gene 6347); assay: BSK_CASM3C_MCP1: BioMAP Diversity Plus: CASM3C Assay for Monocyte Chemoattractant Protein-1 (MCP1) Biomarker Activity (AID 2283046); conditions: primary human coronary artery smooth muscle cells; actives raise or lower the signal;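 also: MCP-1 level quantified by ELISA 24 h after dosing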
Active and inactive are the calls of the source. The calls were made as follows: active = hit-call score of the fitted dose curve at least 0.9, where 1 is the maximum; inactive = score below 0.9.
Possible outcomes: 1 (active), 0 (inactive)

{"molecule": "CCOC(=O)CC(O)(CC(=O)OCC)C(=O)OCC", "label.class": 0}
{"molecule": "CCc1ccc(CCOc2ccc(CC3SC(=O)NC3=O)cc2)nc1 (stereo unspecified)", "label.class": 0}
{"molecule": "OC1CCCCC1", "label.class": 0}
{"molecule": "CC(C)(C)c1ccc(O)c(C(C)(C)C)c1", "label.class": 1}
{"molecule": "CC[C@H](C)[C@@H](C(=O)O)n1sc2ccccc2c1=O", "label.class": 0}
{"molecule": "Cc1cc(CCN2CCN(c3nsc4ccccc34)CC2)cc2c1NC(=O)CC2(C)C", "label.class": 1}
{"molecule": "CC(=O)NC1(c2cccc(F)c2)CCN(CC[C@@]2(c3ccc(Cl)c(Cl)c3)CN(c3ccccc3)C(=O)CO2)CC1", "label.class": 0}
{"molecule": "Cc1cc(C)c(O)c(C)c1", "label.class": 0}
{"molecule": "CCN(CC)CCNc1ccc(CNC=O)c2sc3ccc(OC)cc3c(=O)c12", "label.class": 1}
{"molecule": "CC1=C(/C=C/C(C)=C/C=C/C(C)=C/C(=O)O)C(C)(C)CCC1", "label.class": 0}
{"molecule": "c1ccc2c(c1)ccc1ccccc12", "label.class": 0}
{"molecule": "CN1CCC[C@H]1c1cccnc1", "label.class": 0}
{"molecule": "CCCCCCC(=O)O", "label.class": 0}
{"molecule": "CCCCC(CC)COC(=O)CCCCC(=O)OCc1ccccc1 (stereo unspecified)", "label.class": 0}
{"molecule": "c1ccc2c(c1)Cc1ccccc1-2", "label.class": 0}
{"molecule": "ClC1=C(Cl)C(Cl)(Cl)C(Cl)=C1Cl", "label.class": 1}
{"molecule": "CN(C)C=O", "label.class": 0}
{"molecule": "CC(=O)CC(C)(C)O", "label.class": 0}
{"molecule": "COC(=O)CCCCC(=O)OC", "label.class": 0}
{"molecule": "CCCCCCCCC(=O)O", "label.class": 0}
{"molecule": "FC(F)(I)C(F)(F)C(F)(F)C(F)(F)C(F)(F)C(F)(F)I", "label.class": 1}
{"molecule": "CCCOc1sc(C(=O)N2CCC(c3cc(CN)ccc3F)CC2)c(C)c1Br", "label.class": 1}
{"molecule": "CCCCCCCCCCCCCCCS(=O)(=O)Oc1ccccc1", "label.class": 0}
{"molecule": "NC(=O)N1C(=O)C(C(=O)c2cc(Cl)cs2)c2cc(F)c(Cl)cc21 (stereo unspecified)", "label.class": 1}
{"molecule": "CCCCOCCO", "label.class": 0}
{"molecule": "CN1CCN(c2ccccc2/C=C2\\SCCN(c3ccc(Cl)c(Cl)c3)C2=O)CC1", "label.class": 0}
